B1: RTP4 (parent)
chain: TYWEHWTSQGQVRMRLFGQRCQKC

variants of: B1; assay: protein stability index of a GFP-peptide fusion (GPS, HEK-293T) (PSI 1-6); higher = more stable; conditions: c terminus: a fixed tail appended;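 further: lentivirally expressed fusions sorted by FACS into six bins by GFP to DsRed ratio, PSI derived from sequencing read proportions per bin multiplied by bin number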
Entries and their protein stability index values follow.
valueType: protein stability index

| mutationDescriptor | recordedMeasurement |
| --- | --- |
| Q9E | 2.02 |
| Q9D | 1.4 |
| R15P | 1.87 |
| V12D | 1.7 |
| Y2D | 1.66 |
| L16R | 1.91 |
| T1E | 1.36 |
| S8V | 1.67 |
| Q11D | 2.41 |
| S8L | 1.23 |
| Q11S | 2.59 |
| V12Y | 2.65 |
| Q9W | 1.69 |
| K23S | 1.48 |
| H5Y | 1.58 |
| R15V | 1.64 |
| Y2H | 1.99 |
| C24Q | 2.28 |
| K23E | 1.79 |
| C21Y | 1.81 |
| S8H | 2.56 |
| Y2C | 2.69 |
| Q19W | 2.6 |
| G18C | 2.03 |
| Q19A | 1.98 |
| R13V | 1.65 |
| R13P | 1.92 |
| M14Y | 1.9 |
| T7V | 1.93 |
| F17G | 2.31 |
| M14V | 1.89 |
